Experimental Protocol: yeast display, Sf9 membrane polyspecificity reagent, FACS + sequencing; frameworks hold sequencing errors
Readout Type: polyreactivity (PSR sort gate)

Examples with their reported polyreactivity (PSR sort gate) follow.
INSERT INTO results (residue_sequence, readout_type, reported_measurement) VALUES
  ('QVQLVESGGGLVQAGGSLRLSCAASGHTFAYNAMGWYRQAPGKEREFVAAITWSTDNTYYADSVKGRFTISRDYAKYTVYLQMNSLKPEDTAVYYCAVDVYFYYRHYGYWGQGTQVTVSS', 'polyreactivity (PSR sort gate)', 'low polyreactivity'),
  ('QVQLVESGGGLVQAGGSLRLSCAASGFIFGRYAMGWYRQAPGKERELVAAITYSSGSTYYADSVKGRFTISRDNAKNTVYLQMNSLKPEDTAVYYCNAEFWYETLYEYDYWGQGTQVTVSS', 'polyreactivity (PSR sort gate)', 'high polyreactivity'),
  ('QVQLVESGGGLVQAGGSLRLSCAASGITFYYNAMGWYRQAPGKERELVATINDSDGSTYADSVKGRFTISRDNAKNTVYLQMNSLKPEDTAVYYCNAQTRAGYYFGYGYWGQGTQVTVSS', 'polyreactivity (PSR sort gate)', 'low polyreactivity'),
  ('QVQLVESGGGLVQAGGSLRLSCAASGSTLFWNAIGWYRQAPGKERELVAVISFSGVSTYYADSVKGRFTISRDNAKNTVYLQMNSLKPEDTAVYYCAAEVPHWPYYGRLHDRDYWGQGTQVTVSS', 'polyreactivity (PSR sort gate)', 'low polyreactivity'),
  ('QVQLVESGGGLVQAGGSLRLSCAASGSIFDINAMGWYRQAPGKERELVADISWSGGRTYYADSVKGRFTISRDNAKNTVYLQMNSLKPEDTAVYYCNAQDSRFWYAEYDYWGQGNQVTVSS', 'polyreactivity (PSR sort gate)', 'low polyreactivity');

# input for lookup
Lookup: So what's the measured polyreactivity (PSR sort gate) for this one? `QVQIVESVGGLLQAGGSLRLSCAASGRIFQGYAMGWYRQAPGKERELVASISSCGRTYYADSVKGRFTISRDNAKNTVYLQFNSLTPEDTAVYYCAKRPQFFWSNPYDYWGLGTQVTVSS`
Found: high polyreactivity
